The entries below come with measured EC50 values attached.
Target: human GPR120 (Homo sapiens, UniProt Q5NUL3)
Construct: expressed in transfected cells
Sequence (Q5NUL3 1-361): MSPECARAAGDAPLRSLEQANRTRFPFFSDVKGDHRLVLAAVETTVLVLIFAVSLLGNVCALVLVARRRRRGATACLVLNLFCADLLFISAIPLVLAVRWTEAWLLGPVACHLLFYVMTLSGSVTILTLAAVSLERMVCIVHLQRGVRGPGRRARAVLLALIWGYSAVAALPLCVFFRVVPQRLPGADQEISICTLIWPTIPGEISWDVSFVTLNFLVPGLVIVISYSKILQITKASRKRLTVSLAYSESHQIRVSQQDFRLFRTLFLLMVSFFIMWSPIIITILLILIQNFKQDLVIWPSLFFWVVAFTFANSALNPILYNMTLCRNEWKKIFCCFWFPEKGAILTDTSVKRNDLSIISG
Test: Ca2+ influx assay in CHO cells stably expressing human GPR120
Assay type: cell-based
Conditions: CHO cells expressing human GPR120, Ca2+ signal, mean of three determinations
Description: Chinese hamster ovary (CHO) cells stably expressing human GPR120 were suspended in growth media at a concentration of 1 × 10^6 per mL. […] The test compounds at various concentrations were added to the cells, and intracellular Ca^2+ concentrations were measured using FlexStation3 Molecular Devices. The GPR120 agonistic activities of the test compounds were expressed as A/B (increase in the intracellular Ca^2+ concentration (A) in the test compound-treated cells and (B) in vehicle-treated cells). […]
Write the answer as a number in nM, unit excluded.

Past entries and their recorded results:
>>> print(df.to_string())
                                   compound  result_type  measurement_unit  observed
0  Cc1ccc(-c2ccc(F)cc2COc2ccc(OCC(=O)O)cc2)cc1 [Compound 5f]         EC50                nM       103
1  Cc1ccc(-c2ccc(F)cc2COc2ccc(CC(C)C(=O)O)cc2)cc1 (stereo not drawn) [Compound 1f]         EC50                nM       146
2  Cc1ccc(-c2ccc(F)cc2COc2ccc(CCC(=O)O)c(C)c2)cc1 [Compound 3f]         EC50                nM      90.2
3  Cc1ccc(-c2ccc(F)cc2COc2ccc(C(C)CC(=O)O)cc2)cc1 (stereo not drawn) [Compound 2f]         EC50                nM      52.8
4  COc1ccc2c(c1)CCCN2C(=O)COc1ccc(OCC(=O)O)c(C)c1 [Compound 11h]         EC50                nM       146

We now examine a further compound.
Output reported EC50 of the compound Cc1ccc2c(c1)CCCN2C(=O)COc1ccc(C(C)CC(=O)O)cc1 (stereo not drawn) [Compound 11b] on human GPR120 (Homo sapiens, UniProt Q5NUL3).
71.2

----------
molecular target: hGPR40 (Homo sapiens, UniProt O14842); construct: expressed in transfected cells; host or cells: CHO cells; assay: Calcium influx assay on hGPR40-expressing CHO cells; format: cell-based; conditions: GPR40 EC50 over GPR120 EC50
Sequence (O14842 whole entry): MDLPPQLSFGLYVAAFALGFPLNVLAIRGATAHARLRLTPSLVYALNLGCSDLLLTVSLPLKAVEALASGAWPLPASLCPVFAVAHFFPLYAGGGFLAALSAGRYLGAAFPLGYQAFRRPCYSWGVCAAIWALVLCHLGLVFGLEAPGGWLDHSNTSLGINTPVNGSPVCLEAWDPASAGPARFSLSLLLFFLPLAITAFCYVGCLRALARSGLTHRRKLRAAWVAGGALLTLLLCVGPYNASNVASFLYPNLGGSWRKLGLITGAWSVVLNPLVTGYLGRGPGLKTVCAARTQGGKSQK
result.type: Selectivity
Just the number, please, no unit attached.

Past entries and their recorded results:
                                   compound                    experimental_target  result_type  observed
0  Cc1ccc(-c2ccc(F)cc2COc2ccc(C(C)CC(=O)O)cc2)cc1 (stereo not shown) [Compound 2f]  hGPR40 (Homo sapiens, UniProt O14842)  Selectivity      1373
1  Cc1ccc(-c2ccc(F)cc2COc2ccc(OCC(=O)O)c(C)c2)cc1 [Compound 6f]  hGPR40 (Homo sapiens, UniProt O14842)  Selectivity       810
2  Cc1ccc2c(c1)CCCN2C(=O)COc1ccc(OCC(=O)O)c(C)c1 [Compound 11g]  hGPR40 (Homo sapiens, UniProt O14842)  Selectivity      1036

We now examine a further compound.
Supply Selectivity value. Item: Cc1ccc2c(c1)CCCN2C(=O)COc1ccc(C(C)CC(=O)O)cc1 (stereo not shown) [Compound 11b]
1159
